This collection of values is drawn from the array DNA melting data of Ke et al. (doi:10.1101/2024.01.08.574731).

EXPERIMENT_NOTES: melting temperature; fluorescence melt of hairpins on a sequencing array, two-state fit, raised by 9.35 °C to match UV melts
STATED_CONDITIONS: sodium 0.088 M
REPORTED_METRIC: Tm (°C)
Respond with the bare value in °C.

// known answers, use as guide
[
  {
    "POLYMER_SEQUENCE": "GTAATAGGAAACTATTAC (((((((....)))))))",
    "QUANTITATIVE_READOUT": 45.5
  },
  {
    "POLYMER_SEQUENCE": "GTCTTACGAAAGTACGAC (((.(((....))).)))",
    "QUANTITATIVE_READOUT": 43.8
  }
]

Q: Quick one: give measured Tm for GATCGTTTTACGATC ((((((...))))))
Ans: 60.1

Q: Return Tm for the following sequence: GATGGGGGAAACCCTGTC ((..(((....)))..))
Ans: 33.2

Q: For the sequence GCGCACGAAAGTGCACGC ((((((....)))..))) , give its reported Tm.
Ans: 61.1

Q: Read off the recorded Tm for GTATAGGAAACTATAC ((((((....))))))
Ans: 41.5
